Each recorded value in this set is attributed to paper PMC12777510.

# Tested on: Fusarium graminearum
# TEST CONDITIONS: broth microdilution, RPMI 1640 pH 7, 96-well plates, 28 °C for 48 h, no agitation, visual read-out, lowest concentration with complete inhibition of growth; DMSO max 2.5% v/v; triplicate
*1 amine or outer side, *2 acyl side, *3 side chain or, on linkers, in order; H or OH if unused. Where a SMILES comes first, the peptide text is derived from it. [ ]: non-standard residue; d: D form. Aminotetradecanoyl(3R) = CCCCCCCCCCC[C@H](CC(=O)[*:2])N[*:1]; dTyr(3-CF3) = N[C@H](Cc1ccc(O)c(C(F)(F)F)c1)C(=O)O; X1 = O=C(C[C@@H](CCCCCCCCCCC(F)(F)F)N[*:1])[*:2]
In this section we review reported MIC F. graminearum values for a set of compounds.
MEASURED PROPERTY: MIC F. graminearum (µM)

1. CCCCCCCCCCC[C@@H]1CC(=O)N[C@@H](CC(N)=O)C(=O)N[C@H](Cc2ccc(O)cc2)C(=O)N[C@H](CC(N)=O)C(=O)N[C@@H](CCC(N)=O)C(=O)N2CCC[C@H]2C(=O)N[C@H](CC(N)=O)C(=O)N[C@@H](CO)C(=O)N1 [Synthetic iturin A2, iturin A2, reference compound] (cyclo(N[dY][dN]QP[dN]S[Aminotetradecanoyl(3R)])) :: 16
2. NC(=O)CC[C@@H]1NC(=O)[C@@H](CC(N)=O)NC(=O)[C@@H](Cc2ccc(O)cc2)NC(=O)[C@H](CC(N)=O)NC(=O)C[C@@H](CCCCCCCCCCC(F)(F)F)NC(=O)[C@H](CO)NC(=O)[C@@H](CC(N)=O)NC(=O)[C@@H]2CCCN2C1=O [Compound 9, ω‐CF3 iturin A2] (cyclo(N[dY][dN]QP[dN]S[X1])) :: 64
3. CCCCCCCCCCC[C@@H]1CC(=O)N[C@@H](CC(N)=O)C(=O)N[C@H](Cc2ccc(O)c(C(F)(F)F)c2)C(=O)N[C@H](CC(N)=O)C(=O)N[C@@H](CCC(N)=O)C(=O)N2CCC[C@H]2C(=O)N[C@H](CC(N)=O)C(=O)N[C@@H](CO)C(=O)N1 [Compound 10, o‐CF3‐Tyr iturin A2] (cyclo(N[dTyr(3-CF3)][dN]QP[dN]S[Aminotetradecanoyl(3R)])) :: 128
